QUANTITY NAME: melting point

// solved cases for melting point follow
[[record]]
molecule = "S=c1[nH]nc(-c2ccc(Cl)cc2)n1-c1ccccc1Br [Compound 15a]"
result = "250 to 252 °C"

[[record]]
molecule = "CC(=O)c1ccc(-n2c(-c3cccc(Cl)c3)n[nH]c2=S)cc1 [Compound 11a]"
result = "218 to 220 °C"

[[record]]
molecule = "S=c1n(CN2CCN(c3ccccc3)CC2)nc(-c2ccc(Cl)cc2)n1-c1ccc(Br)cc1 [Compound 29a]"
result = "178 to 180 °C"


Please report melting point for the following molecule: S=c1n(CN2CCN(c3ccccc3)CC2)nc(-c2ccc(Cl)cc2)n1-c1ccccc1Br [Compound 26a] 140 to 142 °C

Please report melting point for the following molecule: Fc1ccccc1-n1c(-c2ccc(Cl)cc2)n[nH]c1=S [Compound 12a] 240 to 242 °C

Please report melting point for the following molecule: Fc1ccc(N2CCN(Cn3nc(-c4ccc(Cl)cc4)n(-c4ccccc4Br)c3=S)CC2)cc1 [Compound 27a] 168 to 170 °C

Please report melting point for the following molecule: Cc1ccccc1-n1c(-c2cccc(Cl)c2)n[nH]c1=S [Compound 8a] 186 to 188 °C
